Molecular target: MAGI2_5, Q86UL8
Sequence (Q86UL8 915-1017): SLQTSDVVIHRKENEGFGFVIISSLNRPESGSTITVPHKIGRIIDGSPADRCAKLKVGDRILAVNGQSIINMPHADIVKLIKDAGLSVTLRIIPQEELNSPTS
Assay: holdup assay
Parameters: key: below the threshold = too weak to quantify, mostly under pKd 3.1 to 4
Settings: plain residues with an end cap or a label only (N-terminal biotin on a linker: ado-ado)
endpoint-label: pKd

| binder | endpoint-label | obs-value |
| --- | --- | --- |
| TSQESEDTYL [TBC1D10A, Q9BXI6] | pKd | below the threshold |
| QPCFNKLFPL [LPXN, O60711] | pKd | below the threshold |
| NHSSSPETTA [TRMT13, Q9NUP7] | pKd | below the threshold |
| VNKSKLLTDV [KCNA1, Q09470] | pKd | below the threshold |
| PRAEAEDSFL [PDGFRB, P09619] | pKd | below the threshold |
| SKENVQETQI [LRRC4B, Q9NT99] | pKd | 4.13 |
| EVNETDDTKM [KCNJ1, P48048] | pKd | 4.04 |
| RKPKPSSSCC [RAB9A, P51151] | pKd | below the threshold |
| EVEEFPETSV [TRPV3, Q8NET8] | pKd | 3.82 |
| QSLNRMEYIV [JAG1, P78504] | pKd | below the threshold |
| PAPSSGKDYV [CLDN1, O95832] | pKd | below the threshold |
| QGLAERISVL [PRKD2, Q9BZL6] | pKd | 4.13 |
| HLRARKSEWV [GJD4, Q96KN9] | pKd | below the threshold |
| TPPAAKKSRI [BAZ1A, Q9NRL2] | pKd | below the threshold |
